test system: erythroid progenitor cells (EPCs); experiment: Fetal hemoglobin (HbF) ELISA in day 7 erythroid progenitor cells; format: cell-based, human; conditions: Homo sapiens, Erythroid progenitor cell, HbF ELISA, day 7 EPCs, 5 days; read-out: EPC ELISA (pEC50 category) (converted);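 further: for fetal hemoglobin induction normalized to vehicle-treated cells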
Structures can show the parent of a compound that is named as a salt.
OUTCOME_MEASURE: EC50

Sample records with EC50:
# MOLECULE, EC50
measured = [
    ("CCc1c(C#N)c(SCc2ccc(OCCN(C)C)cc2)nc(N2CCCN(C)CC2)c1C#N", "> 31600 nM"),
    ("CCc1c(C#N)c(SC(C(N)=O)c2ccccc2)nc(N2CCOC(CN(C)C)C2)c1C#N (stereo not shown)", "< 316 nM"),
    ("CC1CN(c2nc(SC(C(N)=O)c3ccccc3)c(C#N)c(C3CC3)c2C#N)CC(C)O1 (stereo not shown)", "1000 to 31600 nM"),
]

The molecule CN1CCN(c2nc(SC(C(N)=O)c3ccccc3)c(C#N)c(C3CC3)c2C#N)CC1=O (stereo not shown) showed EC50 equal to < 316 nM

The molecule N#Cc1c(SC(C(N)=O)c2ccccc2)nc(N2CCC(O)C2)c(C#N)c1C1CC1 (stereo not shown) showed EC50 equal to 1000 to 31600 nM

The molecule CCc1c(C#N)c(SC(C(N)=O)c2ncccc2F)nc(N2CCC(N)CC2)c1C#N (stereo not shown) showed EC50 equal to < 316 nM

The molecule N#Cc1c(SC(C(N)=O)c2ccccc2)nc(N2CC(O)C2)c(C#N)c1C1CC1 (stereo not shown) showed EC50 equal to 1000 to 31600 nM

The molecule CCc1c(C#N)c(SCc2ccc(CNC(C)=O)cc2)nc(N2CCC(N)CC2)c1C#N [Example 156, Trifluoroacetic Acid Salt] showed EC50 equal to 316 to 1000 nM

The molecule CCc1c(C#N)c(SC(C(N)=O)c2ccccc2)nc(N2CCC(N3CC(OC)C3)CC2)c1C#N (stereo not shown) showed EC50 equal to < 316 nM

The molecule CCc1c(C#N)c(SCc2ccc(NC(=O)CO)cc2)nc(N2CCCN(C)CC2)c1C#N showed EC50 equal to 316 to 1000 nM
